Just for reference, the supplement of paper PMC11699113 is where these values come from.

Tested on: ED cells (E. derm NBM-6, ATCC CCL-57)
assay protocol: cell viability (ATP, CellTiter-Glo) relative to untreated control (fraction of control); higher = less cytotoxic
test context: 100 µM; incubation time: 24h
Where a name gives a salt, the structure may show the parent alone.
Below, each entry is listed alongside its reported cell viability.

> print(dat)
                                   compound                      system.under.test  reported.result
1  CC(C)OC(=O)OCOP(=O)(CO[C@H](C)Cn1cnc2c(N)ncnc21)OCOC(=O)OC(C)C [tenofovir disoproxil fumarate]  ED cells (E. derm NBM-6, ATCC CCL-57)            0.721
2  Nc1nc(NC2CC2)c2ncn([C@H]3C=C[C@@H](CO)C3)c2n1  ED cells (E. derm NBM-6, ATCC CCL-57)             0.91
3  O=C1Nc2ccc(Cl)cc2[C@@](C#CC2CC2)(C(F)(F)F)O1  ED cells (E. derm NBM-6, ATCC CCL-57)           0.0077

Now let's try a different one.
Case "Nc1ccn([C@@H]2CS[C@H](CO)O2)c(=O)n1" , ED cells (E. derm NBM-6, ATCC CCL-57), cell viability recorded as 1.03

###

Below, each entry is listed alongside its reported cell viability.
Tested on: ED cells (E. derm NBM-6, ATCC CCL-57)
assay protocol: cell viability (ATP, CellTiter-Glo) relative to untreated control (fraction of control); higher = less cytotoxic
test context: 25 µM; incubation time: 1h

Some entries whose results are on file:
compound	cell viability
Cc1cn([C@H]2C[C@H](N=[N+]=[N-])[C@@H](CO)O2)c(=O)[nH]c1=O [zidovudine]	1.02
Nc1nc(NC2CC2)c2ncn([C@H]3C=C[C@@H](CO)C3)c2n1 [abacavir]	1
Nc1nc(=O)n([C@@H]2CS[C@H](CO)O2)cc1F [emtricitabine]	0.998
CC(C)c1nc(CN(C)C(=O)N[C@H](C(=O)N[C@@H](Cc2ccccc2)C[C@H](O)[C@H](Cc2ccccc2)NC(=O)OCc2cncs2)C(C)C)cs1 [ritonavir]	1

Now let's try a different one.
CC(C)(C)NC(=O)[C@@H]1C[C@@H]2CCCC[C@@H]2CN1C[C@@H](O)[C@H](Cc1ccccc1)NC(=O)[C@H](CC(N)=O)NC(=O)c1ccc2ccccc2n1 [saquinavir] has a reported cell viability of 1.01

###

System: ED cells (E. derm NBM-6, ATCC CCL-57)
assay protocol: cell viability (ATP, CellTiter-Glo) relative to untreated control (fraction of control); higher = less cytotoxic
test context: 50 µM; incubation time: 144h
Note to self: use criterion met only for cell viability readings below 0.8; a reading exactly at 0.8 still gets criterion not met.

See these solved cases before continuing.
> print(dat)
                                   molecule     category.label
1  Nc1nc(=O)n([C@@H]2CS[C@H](CO)O2)cc1F [emtricitabine]  criterion not met
2  Cc1cn([C@H]2C[C@H](N=[N+]=[N-])[C@@H](CO)O2)c(=O)[nH]c1=O [zidovudine]  criterion not met
3  CCC[C@@]1(CCc2ccccc2)CC(O)=C([C@H](CC)c2cccc(NS(=O)(=O)c3ccc(C(F)(F)F)cn3)c2)C(=O)O1 [tipranavir]      criterion met
4  Cc1nnc(C(=O)NC(C)(C)c2nc(C(=O)NCc3ccc(F)cc3)c(O)c(=O)n2C)o1 [raltegravir]  criterion not met

--- query ---
Q) A record lists CC(C)c1nc(CN(C)C(=O)N[C@H](C(=O)N[C@@H](Cc2ccccc2)C[C@H](O)[C@H](Cc2ccccc2)NC(=O)OCc2cncs2)C(C)C)cs1 [ritonavir] . Is its cell viability below 0.8?
A) criterion met
